Recorded Kd for the following binders
target: CXCL6; assay: BLI
quantityKind: Kd (nM)

> print(dat)
                                     binder  quantitykind  unitdescriptor  testresult
1  P675_IXORI (other) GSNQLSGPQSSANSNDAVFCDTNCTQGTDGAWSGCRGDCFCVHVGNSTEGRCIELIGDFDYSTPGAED            Kd              nM        7.68
2  P1126_AMBCA (other) KPQILQRTDKSTDSEWDPQTCPETCIPSKNITCSDGCVCVKLGEEEEGTCFNMTGVDWLGSPSDD            Kd              nM        9.12
3  P1090_IXORI (other) GSKELSGPESSENSIEAAFCDTNCTEGTDGVWSGCSAGCFCVHVGNSTVGRCMTFNGVDGG            Kd              nM        2.82
4  P1078_IXORI (other) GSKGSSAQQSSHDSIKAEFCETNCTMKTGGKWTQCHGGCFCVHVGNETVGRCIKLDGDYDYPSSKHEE            Kd              nM        9.24
